molecular target: SARS-CoV-2 full length spike protein, V367F mutant, expressed on CHO cells (SARS-CoV-2, UniProt P0DTC2 14-1273)
READOUT TYPE: median fluorescence fold over isotype control (fold over isotype)
Dear colleague, please return just the value in fold over isotype, with no unit written.

Example results:
BINDER	REPORTED
antibody 368 (antibody, V domains shown) V domain 1: QITLKESGPTLVKPTETLTLTCAFSGFSLTKTGEAAGWIRQAPGRALEWVTVIFWDDDKRYSPSLQNRLTVTKDTSKNVVVLTMTNVDPVDTATYFCWAMGGPGKEFFGQGTRVAVSS V domain 2: QSVLTQPPSVSGAPGQRVTVSCTGTSSSIGPYSDVHWYQHIPGKAPRLLIFGTSNRPSGVPARFSGSKSGSSASLVIAGLQAEDEADYYCQSYDSSLGEIYVFGTGTTVTVL	31.6
antibody 391 (antibody, V domains shown) VH: EVQLVESGGGLVQPGGSLRLSCAASGFTFSSYWMHWVRQAPGKGLVWVSRINSDGSSTSYADSVKGRFTISRDNAKNTLYLQMNSLRAEDTAVYYCALGPLDIVGSYYYYGMDVWGQGTTVTVSS VL: NFMLTQPHSVSESPGKTVTISCTGSSGSIASNYVQWYQQRPGSAPTTVIYEDNQRPSGVPDRFSGSIDSSSNSASLTISGLKTEDEADYYCQSYDSSNQDVVFGGGTKLTVL	18.8

Now look at this entry.
Respond only with median fluorescence fold over isotype control recorded for antibody 394 (antibody, V domains shown) VH: QVQLVQSGAEVKKPGASVKVSCKASGYTFTGYYMHWVRQAPGQGLEWMGWINPNNGGTNSAQKFQGRVTMTRDTSISTAYMELNRLRSDDTAVYYCARDITTTAGTDYYYGMDVWGQGTTVTVSS VL: SYELTQPPSVSVSPGQTARITCSGDALPKQYAYWYQQKPGQAPVLVICKDSERPSGIPERFSGSSSGTTVTLTISGVQAEDEADYYCQSADSSGTYIVFGTGTKVTVL
37.8
